test system: carps; test: Experiment 4: subacute toxicity to fish; assay type: in vivo, 2-year-old carps; conditions: 0.2 ppm; 3 weeks
Would you mind telling me the reported Average Hematocrit Value of survival fish of each entry?
# number only, unit % dropped from output

Enquiry: State its Average Hematocrit Value of survival fish on carps: CCSC(=O)N1CCCCCC1 [Compound 13, reference compound]
Return: 25

Enquiry: Form field - read-out: Average Hematocrit Value of survival fish; system: carps; submitted item: CC1CCC(C)CN(C(=O)SCCCCl)C1 (centres unmarked)
Return: 34

Enquiry: Please provide the recorded Average Hematocrit Value of survival fish for CCN(CC)C(=O)SCCCCl [Compound 10, reference compound] , tested on carps.
Return: 16

Enquiry: Param readout= Average Hematocrit Value of survival fish; system= carps; entry= CC1CCC(C)CN(C(=O)SCCCCCCCl)C1 (centres unmarked) ; returns value.
Return: 35

Enquiry: Missing value: Average Hematocrit Value of survival fish, carps, entry CC1CCCCN1C(=O)SCCCCCl (centres unmarked) . Fill in?
Return: 30

Enquiry: Short answer please: Average Hematocrit Value of survival fish, carps, entry CC1CCCCN1C(=O)SCCCCCCl (centres unmarked)
Return: 30

Enquiry: Query Average Hematocrit Value of survival fish on carps for CC1CCCCN1C(=O)SCCCCl (centres unmarked) [Compound 12, reference compound]
Return: 19

Enquiry: Recall the recorded Average Hematocrit Value of survival fish for CC1CCC(C)CN(C(=O)SCCCCCl)C1 (centres unmarked) with carps and state it.
Return: 34
